assay: chemical genetic growth profiling, strain panel (AID 1159580);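 further: tested at 20 µM; growth read once vehicle control cultures reached saturation at 30 °C; 1 = growth at the plate median or of vehicle wells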; details: S. cerevisiae deletion strains, growth OD, locus YGL248W, strain PDE1
Among all 5,500 compounds or so, about 2,000 (36%) were called active. Another 18% or so got no clear call; they are omitted. No stated cut-off is given here; in the data, active means normalized growth mostly below about 0.91 (no sharp cut-off); inconclusive means no clear call, values can overlap the other calls; inactive means mostly above about 0.92. The list shows a part of the results.
Reply using exactly one outcome from 1 (yes) for active, 0 (no) for inactive

molecule: COc1c2c(cc3c1OCO3)C13C=C[C@H](OC)CC1N(C2)CC3O (some centres not stated)
assigned-category: 0 (no)

Here is the next item to consider.
Would you mind telling me which call this test gave "O=C(OC[C@H]1O[C@H](OC(=O)c2cc(O)c(O)c(OC(=O)c3cc(O)c(O)c(O)c3)c2)[C@H](OC(=O)c2cc(O)c(O)c(OC(=O)c3cc(O)c(O)c(O)c3)c2)[C@@H](OC(=O)c2cc(O)c(O)c(OC(=O)c3cc(O)c(O)c(O)c3)c2)[C@@H]1OC(=O)c1cc(O)c(O)c(OC(=O)c2cc(O)c(O)c(O)c2)c1)c1cc(O)c(O)c(OC(=O)c2cc(O)c(O)c(O)c2)c1" ?
1 (yes)

====

assay: chemical genetic growth profiling, strain panel (AID 1159580);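 further: tested at 20 µM; growth read once vehicle control cultures reached saturation at 30 °C; 1 = growth at the plate median or of vehicle wells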; conditions: S. cerevisiae deletion strains, growth OD, locus YJL154C, strain vps35, stronger effect = lower value
Screen size: about 5,500 compounds; about 2,000 (36%) were called active. About 18% were inconclusive and are not listed. Some of the results follow. Where a SMILES comes first, the peptide text is derived from it. [ ]: non-standard residue; d: D form. Orn = NCCC[CH](N)C(=O)O
measured-parameter: normalized growth
Please give the numeric answer without any surrounding text.

compound: CC(=O)O[C@H]1CC[C@]2(C)C3CC(=O)[C@]4(C)C(C(C)=O)=CCC4C3CC[C@H]2C1 (stereo partly drawn)
measured-parameter: normalized growth
result: 1

compound: OCc1c[nH]c2ccccc12
measured-parameter: normalized growth
result: 0.987

compound: CNC(Cc1c[nH]c2ccccc12)C(=O)O (stereo not drawn)
measured-parameter: normalized growth
result: 0.986

compound: CC(NCCC(c1ccccc1)c1ccccc1)c1ccccc1 (stereo not drawn)
measured-parameter: normalized growth
result: 0.998

compound: CC(=O)Oc1cccc2c1C(=O)c1c(OC(C)=O)cc(C(=O)O)cc1C2=O
measured-parameter: normalized growth
result: 0.953

Tell me the measured normalized growth of "O=C(O)[C@H](O)[C@@](O)(Cc1ccc(O)cc1)C(=O)O" , please.
1

Cool, now "c1ccc2c(Cc3c[nH]c4ccccc34)c[nH]c2c1"
0.794

Now consider "CC(=O)N[C@@H](Cc1c[nH]c2ccccc12)C(=O)O" .
0.968

Would you kindly repeat that for "CCC1(CC)C(=O)C=CNC1=O" ?
0.983

Try this compound too: CC(C)CC1NC(=O)C(CCCN)NC(=O)C(C(C)C)NC(=O)C2CCCN2C(=O)C(Cc2ccccc2)NC(=O)C(CC(C)C)NC(=O)C(CCCN)NC(=O)C(C(C)C)NC(=O)C2CCCN2C(=O)C(Cc2ccccc2)NC1=O (stereo not drawn) (cyclo(FPV[Orn]LFPV[Orn]L); configuration not given here)
1.01

How about this compound: COc1cc2c(cc1O)CCNC2C (stereo not drawn)
0.994

====

assay: chemical genetic growth profiling, strain panel (AID 1159580);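 further: tested at 20 µM; growth read once vehicle control cultures reached saturation at 30 °C; 1 = growth at the plate median or of vehicle wells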; details: S. cerevisiae deletion strains, growth OD, locus YGL248W, strain PDE1, stronger effect = lower value
The whole screen tested about 5,500 compounds, of which about 2,000 (36%) were called active. Another 18% or so got no clear call; they are omitted. The list shows a part of the results.
Entries and their normalized growth
Answer with a number only.

compound: O=C(O)c1cc([N+](=O)[O-])ccc1NCCCc1ccccc1
measured-parameter: normalized growth
result: 0.984
//
compound: O=c1c(O)c(-c2ccc(O)c(O)c2)oc2cc(O)ccc12
measured-parameter: normalized growth
result: 0.923
//
compound: COc1cc2c(cc1OC)-c1c(oc3c4c(ccc3c1=O)OC(C(C)C)C4)CO2 (stereo not given)
measured-parameter: normalized growth
result: 0.988

Which value of normalized growth has been reported for "C=C(C)[C@H]1Cc2c(ccc3c2O[C@@H]2COc4cc(OC)c(OC)cc4[C@@H]2C3=O)O1" in the records?
0.993

Moving on to the next compound: "CCOC([O-])=Nc1c[n+](N2CCOCC2)no1"
1.01

What do you have for CC(=O)[C@@]1(O)CCC2C3CCC4=CC(=O)CC[C@]4(C)C3CC[C@@]21C (stereo not given in full) ?
0.985

Also "COc1cc(NS(=O)(=O)c2ccc(N)cc2)ncn1" , if possible.
0.978

Next entry: COc1cc2c(cc1OC)[C@@]13CCN4CC5=CCOC6CC(=O)N2C1[C@H]6[C@H]5C[C@H]43 (stereo not given in full)
1.01

Here is the next compound: "CN1CCN(CC(=O)N2c3ccccc3C(=O)Nc3cccnc32)CC1"
1.01

Same lookup for "COc1cc(-c2oc3cc(O)ccc3c(=O)c2O)cc(OC)c1OC" , please.
1

From: PubChem BioAssay AID1159580
